measured on: T1, hGCGR-mmh (human)
T1 construct: also called REGN547; monovalent hGCGR
T1 chain: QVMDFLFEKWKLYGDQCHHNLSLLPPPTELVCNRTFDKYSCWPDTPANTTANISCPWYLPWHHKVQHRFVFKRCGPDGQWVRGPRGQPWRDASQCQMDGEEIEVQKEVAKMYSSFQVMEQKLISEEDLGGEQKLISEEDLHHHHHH
experiment description: SPR Biacore T100, 37C, mAb captured, antigen flowed
measurement type: koff (s⁻¹)
Dear colleague, please return just the value in s⁻¹, with no unit written.

{"binder": "H4H1765N (antibody, V domains shown, Anti-GCGR antibody from hybridoma; the controls are called isotype-matched hIgG4) VH: EEQLVESGGDLVQPGGSLRLSCAASGFTLSSYEMNWVRQAPGKGLEWVSYISRGGSLIHYTDSVKGRFTISRDNAKNSLYLQMNSLRAEDTAVYYCVRDPAARYHYYYHGMDVWGQGTTVTVSS VL: DIVMTQSPLSLPVTPGEPASISCRSSQSLLHNNGYNYLDWYLQKPGQSPQLLIYLGSSRASGVPDRFSGSGSGTDFILKISRVEAEDVGVYYCMQALQTPWTFGRGTKVEIK", "koff / s⁻¹": 0.000111}
{"binder": "H4H1321P (antibody, V domains shown, Fully human anti-GCGR antibody; the controls are called isotype-matched hIgG4) VH: QVQLVESGGGVVQPGRSLRLSCAASGFTFSSYDMHWVRQAPGKGLEWVAVISSDGRDKYYVDSVKGRFTISRDNSKNTLYLQMNSLRAEDTAVYYCAKEMVYYDILTGYHNYYGMDVWGQGTTVTVS VL: DIQMTQSPSSLSASVGDRVTITCRASQGINNYLAWFQQKPGKAPKSLIHTASSLQSGVPSKFSGSGSGTDFTLTISSLQPEDFATYYCQQYNTYPLTFGGGTKVEIK", "koff / s⁻¹": 0.0202}
{"binder": "H4H1331P (antibody, V domains shown, Fully human anti-GCGR antibody; the controls are called isotype-matched hIgG4) VH: QVQLVESGGGVVQPGRSLRLSCAASGFTFSNFGMHWVRQAPGKGLEWVAVIWFDEIDKYYADSVKGRFTISRDNSKNTLYPQMNSLRAEDTAVYYCAREDYDILTGYYYAMDVWGQGTTVTVS VL: DIQMTQSPSSLSASVGDRVTITCRASQGIKNDLGWYQQKPGKAPKRLIYAASRLQSGVPSRFSGSGSGTEFTLTISSLQPEDFGTYYCLQHNSHPTFGQGTKVEIK", "koff / s⁻¹": 0.000519}

Input line: May I ask what koff has been recorded for H4H1328P (antibody, V domains shown, Fully human anti-GCGR antibody; the controls are called isotype-matched hIgG4) VH: EVQLVESGGALVQPGGSLRLSCTASGFTFSNYDMHWVRQTTGKGLEWISAIDTAGDTYYPGSVKGRFTVSRENAKNSFYLQMNSLRAGDTAVYYCAREGKYYDILTGDYHYYGMDVWGQGTTVTVS VL: DIQMTQSPSSLSASVGDRVTITCRASQGIRNDLGWYQQKPGKAPKRLIYATSSLQSGVPSRFSGSGSGTEFTLTISSLQPEDFATYYCLQHNSYPLTFGGGTKLEIK ?
Output line: 0.0108
